- measured.target: T1, human CTLA-4-Fc (Chimerigen) (human, UniProt P16410 36-161; P01857 99-330 = IgG part, limits assumed)
- T1 construct: extracellular domain;domain: Fc portion; Bought protein; also called hCTLA-4-Fc; huCTLA-4-Ig
- T1 sequence (P16410 other isoform, or with tags, fused parts or gaps mutant limits assumed): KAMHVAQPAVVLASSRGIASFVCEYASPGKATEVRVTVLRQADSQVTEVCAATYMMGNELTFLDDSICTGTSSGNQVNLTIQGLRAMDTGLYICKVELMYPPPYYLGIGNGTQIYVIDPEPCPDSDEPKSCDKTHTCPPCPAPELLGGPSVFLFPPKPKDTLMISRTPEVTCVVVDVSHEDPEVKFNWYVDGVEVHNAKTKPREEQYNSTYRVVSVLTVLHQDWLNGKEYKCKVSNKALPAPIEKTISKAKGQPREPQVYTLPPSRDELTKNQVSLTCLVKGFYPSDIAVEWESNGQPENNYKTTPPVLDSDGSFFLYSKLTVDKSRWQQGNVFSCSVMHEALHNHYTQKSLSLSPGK
- measurement.protocol: ELISA towards hCTLA-4-Fc
Items are presented alongside their recorded ELISA affinities.
Could you give me the number in nM? Just the number is fine.

binder: S140.4-O10-ABD (fusion with the albumin binding domain of streptococcal protein G) (designed binder, Original linker of protein G between mutein and ABD; also called Onc I-004) QDSTSDLIPAPPLSKVPLQQNFQDNQFHGKWYVVGLAGNRILRDDQHPMNMYATIYELKEDKSYNVTSVISSHKKCEYTIATFVPGSQPGEFTLGNIKSYGDKTSYLVRVVSTDYNQYAVVFFKLAEDNAEFFAITIYGRTKELASELKENFIRFSKSLGLPENHIVFPVPIDQCIDGSGGAVDANSLAEAKVLANRELDKYGVSDYYKNLINNAKTVEGVKALIDEILAALPSAWSHPQFEK
readout: ELISA affinities
result.value: 3.3

binder: S140.4-O10 site-directed PEGylated at Cys 87 with 30k PEG (designed binder, chain 1 pos 87: Cys carrying linear 30 kDa PEG-maleimide, written C, also called O10_PEG(30k); S140.4-O10-PEG(30k)) QDSTSDLIPAPPLSKVPLQQNFQDNQFHGKWYVVGLAGNRILRDDQHPMNMYATIYELKEDKSYNVTSVISSHKKCEYTIATFVPGCQPGEFTLGNIKSYGDKTSYLVRVVSTDYNQYAVVFFKLAEDNAEFFAITIYGRTKELASELKENFIRFSKSLGLPENHIVFPVPIDQCIDGSAWSHPQFEK
readout: ELISA affinities
result.value: 3

Proceeding to the next binder to report its ELISA affinities.
Need ELISA affinities of S140.4-O10 site-directed PEGylated at Cys 87 with 20k PEG (designed binder, chain 1 pos 87: Cys carrying linear 20 kDa PEG-maleimide, written C, also called O10_PEG(20k); S140.4-O10-PEG (20k)) QDSTSDLIPAPPLSKVPLQQNFQDNQFHGKWYVVGLAGNRILRDDQHPMNMYATIYELKEDKSYNVTSVISSHKKCEYTIATFVPGCQPGEFTLGNIKSYGDKTSYLVRVVSTDYNQYAVVFFKLAEDNAEFFAITIYGRTKELASELKENFIRFSKSLGLPENHIVFPVPIDQCIDGSAWSHPQFEK , thanks.
3.6
